Reference for the values: patent US11034672B1

Biological target: EGFR WT (Homo sapiens, UniProt P00533)
Sequence (P00533 25-1210 N540K): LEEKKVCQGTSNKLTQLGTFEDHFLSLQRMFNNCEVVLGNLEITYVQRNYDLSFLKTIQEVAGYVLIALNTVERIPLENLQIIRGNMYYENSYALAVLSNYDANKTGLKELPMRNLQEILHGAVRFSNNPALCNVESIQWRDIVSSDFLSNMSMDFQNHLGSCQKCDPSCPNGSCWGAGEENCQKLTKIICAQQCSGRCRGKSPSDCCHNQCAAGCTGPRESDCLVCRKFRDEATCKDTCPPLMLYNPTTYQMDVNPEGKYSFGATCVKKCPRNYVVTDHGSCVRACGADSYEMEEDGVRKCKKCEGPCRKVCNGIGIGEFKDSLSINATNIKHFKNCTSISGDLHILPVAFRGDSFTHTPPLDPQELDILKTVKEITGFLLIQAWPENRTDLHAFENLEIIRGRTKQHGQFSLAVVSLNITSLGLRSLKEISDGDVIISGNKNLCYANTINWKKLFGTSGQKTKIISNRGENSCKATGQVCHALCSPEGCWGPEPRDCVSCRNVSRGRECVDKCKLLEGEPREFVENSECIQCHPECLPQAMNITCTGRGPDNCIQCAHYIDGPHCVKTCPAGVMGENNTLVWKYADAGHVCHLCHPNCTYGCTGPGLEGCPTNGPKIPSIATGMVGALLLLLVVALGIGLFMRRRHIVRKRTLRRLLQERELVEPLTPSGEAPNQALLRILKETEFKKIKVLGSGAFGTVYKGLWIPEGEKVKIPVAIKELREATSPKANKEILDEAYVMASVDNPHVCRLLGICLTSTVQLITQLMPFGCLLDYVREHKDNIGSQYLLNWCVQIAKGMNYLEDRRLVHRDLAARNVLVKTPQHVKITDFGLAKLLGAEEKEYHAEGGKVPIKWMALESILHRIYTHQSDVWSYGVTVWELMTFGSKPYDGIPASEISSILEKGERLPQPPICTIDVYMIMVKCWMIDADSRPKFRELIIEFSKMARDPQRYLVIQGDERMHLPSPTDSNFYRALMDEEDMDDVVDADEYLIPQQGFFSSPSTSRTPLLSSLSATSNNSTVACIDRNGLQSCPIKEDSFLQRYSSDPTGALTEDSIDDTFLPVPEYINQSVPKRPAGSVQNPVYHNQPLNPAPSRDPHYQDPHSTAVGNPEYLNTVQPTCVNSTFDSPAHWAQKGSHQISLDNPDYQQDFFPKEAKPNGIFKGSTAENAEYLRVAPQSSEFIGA
Assay: BaF3 cell proliferation assay, EGFR WT (Table A)
Format: cell-based
Settings: potency code, 3 days, CellTiterGlo, read-out: EGFR WT (Activity for Inhibiting EGFR)
property measured: IC50

Look over these answered cases.
Prompt: // lookup IC50 for CC#CC(=O)Nc1cc2c(Nc3ccc(Oc4ccccc4)cc3)ncnc2cc1C#C[C@@H]1[C@H]2CN(C)C[C@@H]12 [compound 108]
Completion: 500 to 1000 nM

Prompt: Another compound to check: C=CC(=O)Nc1cc2c(Nc3ccc(OCc4ccccn4)c(Cl)c3)ncnc2cc1OCCN1CCCC1 [compound 28]
Completion: 200 to 300 nM

Prompt: Quick one: C=CC(=O)Nc1cc2c(Nc3ccc(OCc4cccc(F)c4)c(Cl)c3)ncnc2cc1O[C@@H]1CCN(C)C1 [compound 141]
Completion: 100 to 200 nM

Prompt: Now try C=CC(=O)Nc1cc2c(Nc3ccc(OCc4cccnn4)c(Cl)c3)ncnc2cc1OCCCN1CC(OC)C1 [compound 177] .
Completion: 500 to 1000 nM

Prompt: Next: C=CC(=O)Nc1cc2c(Nc3cc(Cl)c(OCc4cccc(F)c4)cc3F)ncnc2cc1OCCN1CC2CCC(C1)O2 [compound 147]
Completion: 500 to 1000 nM

Prompt: Another: C=CC(=O)Nc1cc2c(Nc3ccc(OCc4cccc(C)n4)c(Cl)c3)ncnc2cc1O[C@@H]1CCN(C)C1 [compound 140]
Completion: 300 to 500 nM

Prompt: Please do the same for C=CC(=O)Nc1cc2c(Nc3ccc(OCc4cccc(F)n4)c(Cl)c3)ncnc2cc1OCCN1CC2CCC(C1)O2 [compound 156] as well.
Completion: > 1000 nM

Prompt: Likewise for C=CC(=O)Nc1cc2c(Nc3ccc(OCc4ccccn4)c(Cl)c3)ncnc2cc1OCCN1CC2(CCO2)C1 [compound 52] ?
Completion: 500 to 1000 nM

Further cases:
Prompt: Endpoint output: IC50 of C=CC(=O)Nc1cc2c(Nc3ccc(OCc4ccccn4)c(Cl)c3)ncnc2cc1OC[C@H]1COCCN1 [compound 90] . Value?
Completion: 500 to 1000 nM

Prompt: Field entry: C=CC(=O)Nc1cc2c(Nc3ccc(OCc4ccccn4)cc3)ncnc2cc1OCCN1CC2CN(C)CC2C1 (centres unmarked) [compound 81]
Completion: 200 to 300 nM

Prompt: Next compound up: C=CC(=O)Nc1cc2c(Nc3ccc(OCc4cccc(C(F)(F)F)n4)c(Cl)c3)ncnc2cc1OCCN1CCOCC1 [compound 23]
Completion: > 1000 nM

###

Listed below: pIC50 values for each entry.
Target: EGFR SVD (Homo sapiens, UniProt P00533, DUP768-770)
Construct: expressed in transfected cells; host or cells: BaF3 (murine pro-B), retroviral pMXs-IRES-Blasticidin
Sequence (P00533 with tags, fused parts or gaps DUP768-770): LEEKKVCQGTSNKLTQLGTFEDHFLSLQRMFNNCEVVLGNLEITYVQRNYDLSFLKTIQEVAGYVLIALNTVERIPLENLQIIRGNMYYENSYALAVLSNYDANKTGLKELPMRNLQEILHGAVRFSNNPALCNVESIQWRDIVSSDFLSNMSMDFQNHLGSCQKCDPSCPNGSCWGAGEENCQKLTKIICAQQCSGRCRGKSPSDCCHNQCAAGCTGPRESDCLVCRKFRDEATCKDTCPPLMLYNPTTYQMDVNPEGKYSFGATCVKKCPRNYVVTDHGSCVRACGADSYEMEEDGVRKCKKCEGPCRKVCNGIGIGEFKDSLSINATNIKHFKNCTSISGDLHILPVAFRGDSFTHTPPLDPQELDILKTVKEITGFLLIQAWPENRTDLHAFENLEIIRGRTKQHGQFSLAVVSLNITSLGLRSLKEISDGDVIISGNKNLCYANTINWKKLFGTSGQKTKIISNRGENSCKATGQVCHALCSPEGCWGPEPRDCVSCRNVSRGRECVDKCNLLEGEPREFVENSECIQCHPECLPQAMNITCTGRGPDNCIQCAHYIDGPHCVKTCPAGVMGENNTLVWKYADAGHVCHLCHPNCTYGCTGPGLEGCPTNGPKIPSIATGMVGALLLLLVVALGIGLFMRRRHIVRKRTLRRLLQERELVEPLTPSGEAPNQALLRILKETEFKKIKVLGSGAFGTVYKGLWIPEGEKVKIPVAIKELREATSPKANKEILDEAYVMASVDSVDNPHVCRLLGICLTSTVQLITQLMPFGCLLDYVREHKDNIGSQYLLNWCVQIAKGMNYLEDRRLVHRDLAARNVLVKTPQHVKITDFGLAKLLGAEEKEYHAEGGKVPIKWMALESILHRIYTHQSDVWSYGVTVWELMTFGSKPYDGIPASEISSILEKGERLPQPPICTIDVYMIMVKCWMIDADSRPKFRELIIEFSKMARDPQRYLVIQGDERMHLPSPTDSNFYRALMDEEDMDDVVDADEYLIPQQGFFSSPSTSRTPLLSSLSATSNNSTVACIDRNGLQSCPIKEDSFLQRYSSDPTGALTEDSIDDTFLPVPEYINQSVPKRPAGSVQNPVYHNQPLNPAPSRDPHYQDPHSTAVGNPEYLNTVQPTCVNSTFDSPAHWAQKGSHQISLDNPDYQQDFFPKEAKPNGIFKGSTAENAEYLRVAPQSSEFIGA
Test: Activity for inhibiting EGFR (Table A), EGFR SVD
Type: cell-based
Conditions: read-out: EGFR SVD, potency code (IC50)
pIC50: −log10 of the molar value.

Please review the following examples before continuing.
Prompt: For C=CC(=O)Nc1cc2c(Nc3cc(Cl)c(OCc4ccccn4)cc3F)ncnc2cc1OCCN1CCOCC1 [compound 57] , what is its reported pIC50?
Completion: 7.30 to 7.52

Prompt: C=CC(=O)Nc1cc2c(Nc3ccc(OCc4ccccn4)c(Cl)c3)ncnc2cc1OCCN1CC2CCC(C1)O2 [compound 36] , same question.
Completion: 7.00 to 7.30

Prompt: What would you report for C=CC(=O)Nc1cc2c(Nc3ccc(OCc4ccccn4)c(Cl)c3)ncnc2cc1N1CCC(N(C)C)CC1 [compound 78] ?
Completion: 6.52 to 6.70

Prompt: Then what about the molecule C=CC(=O)Nc1cc2c(Nc3ccc(OCc4ccccn4)c(Cl)c3)ncnc2cc1OC1CC(N(C)C)C1 (stereo not drawn) [compound 62] ?
Completion: 7.52 to 7.70

Prompt: Query C=CC(=O)Nc1cc2c(Nc3ccc(OCc4ccccn4)c(Cl)c3)ncnc2cc1OCCN1CC2CC1CO2 (stereo not drawn) [compound 39] next
Completion: 7.30 to 7.52

Now for a further molecule.
Prompt: Find the recorded pIC50 belonging to C=CC(=O)Nc1cc2c(Nc3ccc(OCc4ccccn4)c(Cl)c3)ncnc2cc1OCCN(C)C [compound 19] and report it.
Completion: 6.70 to 7.00
